Below is a list of entries, each paired with its recorded pKd value.
target: USP7 CD + UBL 1-5 (Homo sapiens, UniProt Q93009); construct: USP7 CD +; test: Surface plasmon resonance assay (SPR); assay type: binding; conditions: kinetic KD; read-out: SPR USP7 CD + UBL 1-5 (KD_kinetic)
Sequence (Q93009 208-1102 limits assumed): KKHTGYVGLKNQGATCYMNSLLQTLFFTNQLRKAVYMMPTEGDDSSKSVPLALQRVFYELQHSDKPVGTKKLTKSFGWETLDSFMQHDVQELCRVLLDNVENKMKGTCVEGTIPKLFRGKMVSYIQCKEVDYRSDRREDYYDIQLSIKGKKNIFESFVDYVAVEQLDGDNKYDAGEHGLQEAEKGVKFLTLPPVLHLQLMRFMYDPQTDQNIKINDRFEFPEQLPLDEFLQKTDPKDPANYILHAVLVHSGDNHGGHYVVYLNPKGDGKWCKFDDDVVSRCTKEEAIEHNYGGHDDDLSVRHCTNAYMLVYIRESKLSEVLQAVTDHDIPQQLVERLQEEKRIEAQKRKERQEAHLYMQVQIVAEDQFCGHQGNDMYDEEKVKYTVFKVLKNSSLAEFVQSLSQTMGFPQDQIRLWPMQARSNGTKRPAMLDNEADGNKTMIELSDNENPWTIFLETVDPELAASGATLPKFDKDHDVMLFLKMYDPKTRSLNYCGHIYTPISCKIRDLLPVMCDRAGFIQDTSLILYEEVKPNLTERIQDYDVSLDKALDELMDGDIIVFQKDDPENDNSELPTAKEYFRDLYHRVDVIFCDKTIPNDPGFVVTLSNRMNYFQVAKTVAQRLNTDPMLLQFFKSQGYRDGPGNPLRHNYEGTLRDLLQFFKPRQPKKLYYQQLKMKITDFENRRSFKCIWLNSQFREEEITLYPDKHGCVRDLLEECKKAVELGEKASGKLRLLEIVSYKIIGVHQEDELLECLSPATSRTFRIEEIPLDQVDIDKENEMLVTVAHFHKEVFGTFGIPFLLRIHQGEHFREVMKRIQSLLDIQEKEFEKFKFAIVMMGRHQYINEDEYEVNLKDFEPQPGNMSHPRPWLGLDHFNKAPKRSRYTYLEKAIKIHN
pKd: −log10 of the molar value.

C[C@H](CC(=O)N1CCC(O)(Cn2cnc3c(-c4ccc(CNC(=O)CCCCCCCNC(=O)OC(C)(C)C)cc4)n(C)nc3c2=O)CC1)c1ccccc1 [U133] ... > 6.00
C[C@H](CC(=O)N1CCC(O)(Cn2cnc3c(-c4ccc(CNC(=O)CCCCCCNC(=O)OC(C)(C)C)cc4)n(C)nc3c2=O)CC1)c1ccccc1 [U132] ... > 6.00
Cc1cc(Cl)cc(-c2ccnc3cc(CN4C(=O)CCC4=O)sc23)c1OC1CCNCC1 [U16] ... > 6.00
C[C@H](CC(=O)N1CCC(O)(Cn2cnc3cc(Br)ccc3c2=O)CC1)c1ccccc1 [U3] ... 4.00 to 6.00
CCc1c(-c2ccc3[nH]ncc3c2)cnc(N)c1-c1ccc(O)cc1 [U8] ... 4.00 to 6.00
CCc1c(-c2ccc(C(=O)NCCOCCOCCOCCN=[N+]=[N-])nc2)cnc(N)c1-c1ccc(O)cc1 [U10] ... 4.00 to 6.00

// pKd value for C[C@H](CC(=O)N1CCC(O)(Cn2cnc3cc(N(C)CCN(C)CCCNC(=O)OC(C)(C)C)ccc3c2=O)CC1)c1ccccc1 [U5] : > 6.00

// pKd value for CCc1c(-c2ccc(C(=O)NCCCNC(=O)OC(C)(C)C)nc2)cnc(N)c1-c1ccc(O)cc1 [U7] : 4.00 to 6.00

// pKd value for Cc1cc(Cl)cc(-c2ccnc3cc(CN4C(=O)CCC4=O)sc23)c1OC1CCN(CCCCCCCNC(=O)OC(C)(C)C)CC1 [U30] : > 6.00

// pKd value for C[C@H](CC(=O)N1CCC(O)(Cn2cnc3c(C#CCO)csc3c2=O)CC1)c1ccccc1 [U1] : > 6.00

// pKd value for C[C@H](CC(=O)N1CCC(O)(Cn2cnc3cc(NCCN(C)CCCNC(=O)OC(C)(C)C)ccc3c2=O)CC1)c1ccccc1 [U6] : > 6.00

// pKd value for C[C@H](CC(=O)N1CCC(O)(Cn2cnc3c(-c4ccc(CNC(=O)CCNC(=O)OC(C)(C)C)cc4)n(C)nc3c2=O)CC1)c1ccccc1 [U134] : > 6.00

// pKd value for CN1CCCn2nc(C(=O)Nc3nc4ccc(NS(=O)(=O)c5cccs5)cc4s3)cc2C1 [U77] : 4.00 to 6.00

// pKd value for Cc1cc(Cl)cc(-c2ccnc3cc(CN4C(=O)CCC4=O)sc23)c1OC1CCN(C(=O)OC(C)(C)C)CC1 [U15] : 4.00 to 6.00

* * *

Below is a list of entries, each paired with its recorded Kd value.
target: USP7 CD + UBL 1-5 (Homo sapiens); construct: USP7 CD +; assay: Surface plasmon resonance assay (SPR); assay type: binding; settings: steady-state KD; read-out: SPR USP7 CD + UBL 1-5 (KD_ss)

The examples below pair each entry with its known result.
CN1CCC(C(=O)Nc2nc3ccc(NS(=O)(=O)c4cnc(Cl)s4)cc3s2)CC1 ... > 100 µM
Cc1cc(Cl)cc(-c2ccnc3cc(CN4C(=O)CCC4=O)sc23)c1OC1CCN(C(=O)CCOCCNC(=O)OC(C)(C)C)CC1 ... 1 to 100 µM
C[C@H](CC(=O)N1CCC(O)(CN2C=NC3C(C#CCOCCNC(=O)OC(C)(C)C)=CSC3C2=O)CC1)c1ccccc1 (stereo partly shown) ... 1 to 100 µM

As a next step, examine the compound that follows.
// Kd value for "C#CCCN1CCCn2nc(C(=O)Nc3nc4ccc(NS(=O)(=O)c5cccs5)cc4s3)cc2C1" : 1 to 100 µM

* * *

Below is a list of entries, each paired with its recorded Kd value.
molecular target: USP7 CD + UBL 1-5 (Homo sapiens); construct: USP7 CD +; assay: Surface plasmon resonance assay (SPR); assay type: binding; conditions: steady-state KD; read-out: SPR USP7 CD + UBL 1-5 (KD_ss)

The examples below pair each entry with its known result.
CCc1c(-c2ccc(C(=O)NCCCNC(=O)CCOCCOCCNC(=O)OC(C)(C)C)nc2)cnc(N)c1-c1ccc(O)cc1 ... 1 to 100 µM
CCc1c(-c2ccc(C(=O)NC)cc2)cnc(NC(=O)CN)c1-c1ccc(O)cc1 ... 1 to 100 µM
C[C@H](CC(=O)N1CCC(O)(Cn2cnc3cc(NCCN4CCN(CCCNC(=O)OC(C)(C)C)CC4)ccc3c2=O)CC1)c1ccccc1 ... < 1 µM
NCCN(c1ccc2nc(NC(=O)c3ccco3)sc2c1)S(=O)(=O)c1cccs1 ... 1 to 100 µM
Cc1cc(Cl)cc(-c2ccnc3cc(CN4C(=O)CCC4=O)sc23)c1OC1CCN(CCCNC(=O)CCCCCCNC(=O)OC(C)(C)C)CC1 ... < 1 µM
Cc1cc(Cl)cc(-c2ccnc3cc(CN4C(=O)CCC4=O)sc23)c1OC1CCN(CCCNC(=O)OC(C)(C)C)CC1 ... < 1 µM
CN1CCCn2nc(C(=O)Nc3nc4ccc(NS(=O)(=O)c5cccs5)cc4s3)nc2C1 ... > 100 µM
CN1CCCn2nc(C(=O)Nc3nc4ccc(NS(=O)(=O)C5CCNC5)cc4s3)cc2C1 (stereo not shown) ... 1 to 100 µM

// Kd value for "Cc1nocc1S(=O)(=O)Nc1ccc2nc(NC(=O)C3CCN(C)CC3)sc2c1" : 1 to 100 µM

// Kd value for "C[C@H](CC(=O)N1CCC(O)(Cn2cnc(N3CCN(CCN)CC3)cc2=O)CC1)c1ccccc1" : < 1 µM

// Kd value for "CN1CCn2cc(C(=O)Nc3nc4ccc(NS(=O)(=O)c5cccs5)cc4s3)nc2C1" : 1 to 100 µM

// Kd value for "CCc1c(-c2ccc(C(=O)NC)nc2)ccc(NCCN=[N+]=[N-])c1-c1ccc(O)cc1" : 1 to 100 µM

// Kd value for "CN1CCC(C(=O)Nc2nc3ccc(NS(=O)(=O)c4cnccn4)cc3s2)CC1" : 1 to 100 µM

// Kd value for "CCc1c(-c2ccc(OCCN)cc2)cnc(N)c1-c1ccc(O)cc1" : 1 to 100 µM

// Kd value for "CN1CCC(C(=O)Nc2nc3ncc(NS(=O)(=O)c4cccs4)cc3s2)CC1" : > 100 µM

// Kd value for "CN1CCCn2nc(C(=O)Nc3nc4ccc(N(C)S(=O)(=O)c5cccs5)cc4s3)cc2C1" : > 100 µM

// Kd value for "CCc1c(-c2ccc(C(=O)NCCOCCOCCOCCN=[N+]=[N-])nc2)cnc(N)c1-c1ccc(O)cc1" : 1 to 100 µM

// Kd value for "CN1CCCn2nc(C(=O)Nc3nc4ccc(NS(=O)(=O)c5nn6ccccc6c5Cl)cc4s3)cc2C1" : 1 to 100 µM

// Kd value for CN1CCCn2nc(C(=O)Nc3nc4ccc(N(CC5CCNC5)S(=O)(=O)c5cccs5)cc4s3)cc2C1 (stereo not shown) : 1 to 100 µM

// Kd value for "CCc1c(-c2ccc(C(=O)NC)nc2)ccc(CNCCNC(=O)OC(C)(C)C)c1-c1ccc(O)cc1" : 1 to 100 µM

* * *

Below is a list of entries, each paired with its recorded IC50 value.
target: UniProt Q93009; experiment: Ub-Rho cleavage assay; type: biochemical; details: Ub-Rho substrate, recombinant USP7; read-out: Ub (Rho) USP7.1 (IC50)

Cc1cc(Cl)cc(-c2ccnc3cc(CN4C(=O)CCC4=O)sc23)c1OC1CCN(C(=O)OC(C)(C)C)CC1 ... > 100 µM

// IC50 value for "CN1CCCn2nc(C(=O)Nc3nc4ccc(NS(=O)(=O)c5nn6ccccc6c5Cl)cc4s3)cc2C1" : > 100 µM

// IC50 value for "CN1CCCn2nc(C(=O)Nc3nc4ccc(NS(=O)(=O)c5cnccn5)cc4s3)cc2C1" : > 100 µM

// IC50 value for "CN1CCC(C(=O)Nc2nc3cc(NS(=O)(=O)c4cccs4)ccc3s2)CC1" : > 100 µM

// IC50 value for "O=C(Nc1nc2ccc(NS(=O)(=O)c3cccs3)cc2s1)c1ccco1" : > 100 µM

// IC50 value for "CCc1c(-c2ccc(C(=O)NCCN)nc2)cnc(N)c1-c1ccc(O)cc1" : < 1 µM

// IC50 value for "CN(C)Cc1cc(C(=O)Nc2nc3ccc(NS(=O)(=O)c4cccs4)cc3s2)nn1C" : > 100 µM

// IC50 value for "CN1CCC(C(=O)Nc2nc3ccc(NS(=O)(=O)N4CC(F)C4)cc3s2)CC1" : > 100 µM

// IC50 value for "CN1CCC(C(=O)Nc2nc3ccc(NS(=O)(=O)CC4CC4)cc3s2)CC1" : > 100 µM

// IC50 value for "C[C@H](CC(=O)N1CCC(O)(Cn2cnc3cc(Br)ccc3c2=O)CC1)c1ccccc1" : 1 to 100 µM

// IC50 value for "CCc1c(-c2ccc(C(=O)NCCCNC(=O)CCCCCNC(=O)OC(C)(C)C)nc2)cnc(N)c1-c1ccc(O)cc1" : 1 to 100 µM

// IC50 value for "CN1CCC(C(=O)Nc2nc3ccc(NS(=O)(=O)c4cnc(Cl)s4)cc3s2)CC1" : > 100 µM

// IC50 value for C[C@H](CC(=O)N1CCC(O)(CN2C=NC3C(C#CCOCCNC(=O)OC(C)(C)C)=CSC3C2=O)CC1)c1ccccc1 (some centres unmarked) : 1 to 100 µM

// IC50 value for "CN1CCC(NC(=O)c2nc3ccc(NS(=O)(=O)c4cccs4)cc3s2)CC1" : > 100 µM
